- Tested on: NCI-H226 lung
- procedure.details: NCI tumour cell line growth inhibition, 48 h
Listed here are compounds together with their documented TGI.

INSERT INTO measurements (compound, measurement_type, reported_result) VALUES
  ('CCOC(=O)Nn1c(C)nnc1CC#N', 'TGI', '> 100 µM');

What value of TGI has been recorded for this entry: COc1ccc(/C=N/c2nc3cc4sc(/N=C/c5ccc(OC)cc5)nc4cc3s2)cc1
> 77.8 µM

Item O=C1Nc2ccccc2C1=Nc1ccc(S(=O)(=O)Nc2nccs2)cc1 has what recorded TGI?
> 100 µM

Fill blank: measured TGI of the compound CC(=O)O[C@H]1CCC2(C)C(=CCC3C2CCC2(C)/C(=N/OC(=O)c4ccc(N(CCCl)CCCl)cc4)CCC32)C1 (stereo not given in full) is ____.
> 100 µM

Name the reported TGI value associated with the compound COc1cc(NCCCCCN=C(N)N)c2ncccc2c1
> 100 µM

Can you share its TGI? I mean this compound: NCCN.NCCN.[Cl-].[O]=[Os+2]=[O]
> 100 µM

Returns the measured TGI for the input compound. Input: COc1ccccc1/C=C1\Sc2scc(-c3ccc(O)c(O)c3)[n+]2C1=O
> 100 µM

Need TGI of O=C(CC1=Nc2nnc(CCCCCCCc3nnc4n3C(=O)C(CC(=O)c3ccccc3)=N4)n2C1=O)c1ccccc1 , thanks.
> 100 µM

###

- Test system: LOX IMVI melanoma
- procedure.details: NCI tumour cell line growth inhibition, 48 h
compounds and their reported TGI

INSERT INTO results (compound, experimental_target, measurement_type, reported_result) VALUES
  ('Cc1cc(NS(=O)(=O)c2ccc(NC(=O)c3cccn4c(=O)c5ccccc5nc34)cc2)no1', 'LOX IMVI melanoma', 'TGI', '> 100 µM');

Returns the measured TGI for the input compound. Input: COc1ccc(C(N)=O)c(OC)c1OCc1ccccc1
> 100 µM

Bench note: what TGI did CSC1=NN(c2ccccc2)C(=O)C1=C(SC)SC show?
66.1 µM

So what does the record say about TGI for CC12OC1(C)C1C(=O)OCC1C2=O (centres undefined) ?
> 100 µM

Record request: TGI value, item O=C(NCc1ccc(Cl)cc1Cl)c1ccc(NC2=C(Cl)C(=O)N(Cc3ccccc3)C2=O)cc1
> 100 µM

Please look up its TGI: COc1ccc(C2C(Cl)C(=O)N2NC(=O)c2ccc(N)cc2)cc1 (centres undefined)
> 100 µM

Recorded TGI for CCOC(=O)C(=O)Nc1ccc(C)c(C)c1 , please?
> 100 µM

Form field: reported TGI of CCCS(=O)(=O)Nc1ccc(F)c(C(=O)c2c[nH]c3ncc(Cl)cc23)c1F
31.1 µM

Please look up its TGI: Cc1ccc(S(=O)(=O)N/N=C2\CC3C4C=CC3C2C4)cc1 (centres undefined)
> 100 µM

# get_value(readout='TGI', item= O=C1Nc2ccccc2C1=Nc1ccc(S(=O)(=O)Nc2nccs2)cc1 )
> 100 µM

Recorded TGI of CN1C(=O)CC2CCCN2C1=O (centres undefined) , please.
> 100 µM

Record request: TGI value, item CCOC(=O)C1=C(NC(C)(C)C)OC/C1=N\NC(=O)Cc1ccccc1
> 100 µM

What value of TGI has been recorded for this entry: O=C(NN1C(=O)CS(=O)(=O)C1c1cccc(F)c1)c1ccncc1 (centres undefined)
> 100 µM

Would you mind telling me what TGI value was observed for C=CC1(CC)/C(=N\O)C(CC)(CC)C(=O)N1O (centres undefined) ?
> 100 µM

Reported TGI for Cc1cc2ncn(C3CCCO3)c2cc1C (centres undefined) : what is it?
> 100 µM
